Target: human ERα (Homo sapiens, UniProt P03372)
Test: NF-κB luciferase reporter (ER/NF-KB-luc) in Ad5-wt-hERα infected HAECT-1 cells
Details: HAECT1, read-out: ER/NF-KB-luc % E2, efficacy relative to the maximal inhibition observed with E2
result-type: Emax (%)

// below: answered compounds
{"smiles-entry": "CCCn1nc(-c2ccc(OC(=O)CC)cc2)c2cccc(Cl)c21", "Emax, %": 71}
{"smiles-entry": "CCCn1nc(-c2ccc(O)cc2C)c2cccc(C(F)(F)F)c21", "Emax, %": 86}
{"smiles-entry": "C=CCn1nc(-c2ccc(O)cc2O)c2cccc(Cl)c21", "Emax, %": 46}

a = CCCn1nc2c(F)cccc2c1-c1ccc(O)cc1
b = CC(C)(C)OC(=O)N[C@@H](CCC(=O)Oc1ccc(-c2nn(C3CCCC3)c3c(F)cccc23)cc1)C(=O)OC(C)(C)C
Task: Returns: the label, a or b , whose recorded Emax is the lower number. Could you answer with the label of the item you picked?
Result: b

a = Oc1ccc(-c2nn(C3CCC3)c3c(C(F)(F)F)cccc23)c(O)c1
b = Oc1ccc(-c2n[nH]c3ccccc23)cc1O
Task: Returns: the label, a or b , whose recorded Emax is the lower number. Could you answer with the label of the item you picked?
Result: a

---

Molecular target: human ERα (Homo sapiens, UniProt P03372)
Test: Creatine kinase expression (ER/CK) in Ad5-wt-hERα infected HAECT-1 cells
result-type: EC50 (nM)

// below: answered compounds
{"smiles-entry": "Cn1nc(-c2ccc(O)cc2O)c2cccc(Cl)c21", "system": "human ERα (Homo sapiens, UniProt P03372)", "display-unit": "nM", "EC50": 827}
{"smiles-entry": "CSc1ccc(-c2cccc3c(-c4ccc(O)cc4C)nn(C4CCCC4)c23)cc1", "system": "human ERα (Homo sapiens, UniProt P03372)", "display-unit": "nM", "EC50": 490}
{"smiles-entry": "CCCn1nc2c(-c3ccccc3)cccc2c1-c1ccc(O)cc1", "system": "human ERα (Homo sapiens, UniProt P03372)", "display-unit": "nM", "EC50": 12}
{"smiles-entry": "Oc1ccc(-c2nn(C3CCCCC3)c3c(F)cccc23)cc1", "system": "human ERα (Homo sapiens, UniProt P03372)", "display-unit": "nM", "EC50": 51}
{"smiles-entry": "Cc1cccc2c(-c3ccc(O)cc3)nn(C(C)C)c12", "system": "human ERα (Homo sapiens, UniProt P03372)", "display-unit": "nM", "EC50": 57}
{"smiles-entry": "Oc1ccc(-c2n[nH]c3ccccc23)cc1O", "system": "human ERα (Homo sapiens, UniProt P03372)", "display-unit": "nM", "EC50": 1840}
{"smiles-entry": "Oc1ccc(-c2nn(Cc3ccccc3)c3ccc(C(F)(F)F)cc23)c(O)c1", "system": "human ERα (Homo sapiens, UniProt P03372)", "display-unit": "nM", "EC50": 2930}
{"smiles-entry": "C=CCn1nc(-c2ccc(O)cc2)c2cccc(C)c21", "system": "human ERα (Homo sapiens, UniProt P03372)", "display-unit": "nM", "EC50": 205}

a = CC(C)n1nc(-c2ccc(O)cc2)c2cccc(-c3cccs3)c21
b = OCCn1nc(-c2ccc(O)cc2)c2cccc(F)c21
c = C=CCn1nc2c(C(F)(F)F)cccc2c1-c1ccc(O)cc1C
Task: Put the items in sequence by EC50, from largest down. Form entry: ranked labels (order as requested).
Result: b, a, c

1 = CC(C)(C)OC(=O)NCC(=O)NCC(=O)Oc1ccc(-c2nn(C3CCCC3)c3c(F)cccc23)cc1
2 = CCCCn1nc(-c2ccc(O)cc2)c2cccc(F)c21
3 = CCCn1nc(-c2ccc(O)cc2)c2cccc(C(F)(F)F)c21
4 = CC(C)n1nc(-c2ccc(O)cc2)c2cccc(Cl)c21
Task: In this exercise, place the 4 compounds in ascending sequence of their recorded EC50. Form entry: ranked labels (order as requested).
Result: 3, 4, 1, 2

a = CC(C)n1nc(-c2ccc(O)cc2)c2cccc(-c3ccsc3)c21
b = Cc1cc(O)ccc1-c1nn(C2CCCC2)c2c(-c3ccco3)cccc12
c = COc1ccccc1-n1nc(-c2ccc(O)cc2O)c2ccc(O)cc21
d = Oc1ccc(-c2nn(Cc3ccccc3)c3ccccc23)c(O)c1
e = CCC(CC)Cn1nc(-c2ccc(O)cc2O)c2cccc(C(F)(F)F)c21
Task: Put the items in sequence by EC50, from largest down. Form entry: ranked labels (order as requested).
Result: d, c, e, a, b

---

Target: human ERα (Homo sapiens, UniProt P03372)
Sequence (P03372 1-595): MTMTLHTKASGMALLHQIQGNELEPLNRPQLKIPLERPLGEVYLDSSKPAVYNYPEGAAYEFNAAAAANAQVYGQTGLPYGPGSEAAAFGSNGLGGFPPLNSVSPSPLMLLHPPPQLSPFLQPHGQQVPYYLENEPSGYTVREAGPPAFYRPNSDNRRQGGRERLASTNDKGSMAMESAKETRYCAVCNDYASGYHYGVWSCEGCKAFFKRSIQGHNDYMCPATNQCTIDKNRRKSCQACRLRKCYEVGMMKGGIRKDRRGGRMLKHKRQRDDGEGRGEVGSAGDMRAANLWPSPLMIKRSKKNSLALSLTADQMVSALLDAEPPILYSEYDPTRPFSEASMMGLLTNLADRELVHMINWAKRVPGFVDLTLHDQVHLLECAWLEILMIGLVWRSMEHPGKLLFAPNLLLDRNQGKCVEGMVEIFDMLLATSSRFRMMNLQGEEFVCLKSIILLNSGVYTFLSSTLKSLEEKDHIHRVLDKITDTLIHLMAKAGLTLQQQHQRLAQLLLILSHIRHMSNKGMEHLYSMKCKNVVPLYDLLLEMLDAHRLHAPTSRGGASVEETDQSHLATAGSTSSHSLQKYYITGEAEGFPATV
Assay: NF-κB luciferase reporter (ER/NF-KB-luc) in Ad5-wt-hERα infected HAECT-1 cells
Settings: HAECT1, read-out: ER/NF-KB-luc % E2, efficacy relative to the maximal inhibition observed with E2
result-type: Emax (%)

// below: answered molecules
{"smiles-entry": "CC(C)Cn1nc(-c2ccc(O)cc2O)c2cccc(F)c21", "Emax (%)": 86}
{"smiles-entry": "CCCn1nc2c(F)cccc2c1-c1ccc(O)cc1C", "Emax (%)": 87}
{"smiles-entry": "CC(C)n1nc(-c2ccc(O)cc2)c2cccc(-c3ccc(-c4ccccc4)cc3)c21", "Emax (%)": 81}
{"smiles-entry": "CCCCn1nc(-c2ccc(O)cc2)c2ccc(Cl)cc21", "Emax (%)": 100}
{"smiles-entry": "Cn1nc(-c2ccc(O)cc2O)c2cccc(C(F)(F)F)c21", "Emax (%)": 83}

1 = CCCn1nc2c(C)cccc2c1-c1ccc(O)cc1
2 = Oc1ccc(-c2nn(C3CCCC3)c3c(-c4ccc(O)c(O)c4)cccc23)cc1
Task: Endpoint returns whichever of 1 and 2 has the numerically higher Emax. Could you answer with the label of the item you picked?
Result: 1
(1: 89%, 2: 54%)

---

Target: human ERα (Homo sapiens, UniProt P03372)
Assay: Creatine kinase expression (ER/CK) in Ad5-wt-hERα infected HAECT-1 cells
result-type: EC50 (nM)

{"smiles-entry": "Oc1ccc(-c2n[nH]c3ccccc23)cc1", "system": "human ERα (Homo sapiens, UniProt P03372)", "EC50 / nM": 205}
{"smiles-entry": "Cn1nc(-c2ccc(O)cc2)c2cc(F)ccc21", "system": "human ERα (Homo sapiens, UniProt P03372)", "EC50 / nM": 1370}

a = Cc1cc(O)ccc1-c1nn(C2CCCC2)c2c(-c3ccccc3C)cccc12
b = COc1ccc(-n2nc(-c3ccc(O)cc3O)c3ccc(O)cc32)cc1
c = OCCn1nc(-c2ccc(O)cc2O)c2cc(F)ccc21
Task: Put the items in sequence by EC50, from largest down. Form entry: ranked labels (order as requested).
Result: c, b, a

---

Target: human ERα (Homo sapiens, UniProt P03372)
Assay: NF-κB luciferase reporter (ER/NF-KB-luc) in Ad5-wt-hERα infected HAECT-1 cells
Settings: ER/NF-KB-luc IC50, Ad5-wt-ER infected HAECT-1 cells, IL-1β
pIC50: −log10 of the molar value.
result-type: pIC50

// below: answered compounds
{"smiles-entry": "CC(=O)Oc1ccc(-c2nn(C3CCCC3)c3c(F)cccc23)cc1", "system": "human ERα (Homo sapiens, UniProt P03372)", "result-type": "pIC50", "measurement": 6.57}
{"smiles-entry": "Cc1cc(O)ccc1-c1c2cccc(Cl)c2nn1C(C)C", "system": "human ERα (Homo sapiens, UniProt P03372)", "result-type": "pIC50", "measurement": 7.48}
{"smiles-entry": "Cc1cc(O)ccc1-c1nn(C(C)C)c2c(-c3ccc(-c4ccccc4)cc3)cccc12", "system": "human ERα (Homo sapiens, UniProt P03372)", "result-type": "pIC50", "measurement": 7.25}
{"smiles-entry": "CC(C)(C)OC(=O)N[C@@H](CCC(=O)Oc1ccc(-c2nn(C3CCCC3)c3c(F)cccc23)cc1)C(=O)OC(C)(C)C", "system": "human ERα (Homo sapiens, UniProt P03372)", "result-type": "pIC50", "measurement": 6.82}
{"smiles-entry": "CC(C)n1nc(-c2ccc(O)cc2)c2cccc(-c3ccc(CO)cc3)c21", "system": "human ERα (Homo sapiens, UniProt P03372)", "result-type": "pIC50", "measurement": 6.44}

I = CCC(CC)Cn1nc(-c2ccc(O)cc2O)c2cccc(C(F)(F)F)c21
II = CCCn1nc2c(F)cccc2c1-c1ccc(O)cc1
Task: Endpoint returns whichever of I and II has the numerically higher pIC50. Could you answer with the label of the item you picked?
Result: I

1 = Oc1ccc(-c2nn(-c3ccc(OC(F)(F)F)cc3)c3cc(O)ccc23)c(O)c1
2 = CCCCn1nc(-c2ccc(O)cc2)c2cc(C(F)(F)F)ccc21
3 = C=CCn1nc(-c2ccc(O)cc2O)c2cccc(Cl)c21
Task: In this exercise, place the 3 compounds in ascending sequence of their recorded pIC50. Form entry: ranked labels (order as requested).
Result: 2, 3, 1
(2: 6.33, 3: 6.63, 1: 6.88)

a = Oc1ccc(-c2nn(C3CCCC3)c3c(-c4ccc(O)c(O)c4)cccc23)cc1
b = Oc1ccc(-c2nn(CC3CCCCC3)c3c(C(F)(F)F)cccc23)c(O)c1
c = Cn1nc(-c2ccc(O)cc2)c2cc(C(F)(F)F)ccc21
Task: In this exercise, place the 3 compounds in ascending sequence of their recorded pIC50. Form entry: ranked labels (order as requested).
Result: c, a, b
(c: 6.24, a: 6.80, b: 7.32)

P = CC(C)(C)OC(=O)NCC(=O)NCC(=O)Oc1ccc(-c2nn(C3CCCC3)c3c(F)cccc23)cc1
Q = Oc1ccc(-c2nn(Cc3ccccc3)c3ccccc23)c(O)c1
Task: Endpoint returns whichever of P and Q has the numerically higher pIC50. Could you answer with the label of the item you picked?
Result: P
